Molecular target: T1, rhB7-H2-Fc (fusion protein of the extracellular part of human B7-H2 (ICOSL) and mouse Fc gamma 1, R&D Systems … (human; mouse, UniProt O75144 19-256; P01868 98-324 = IgG part, limits assumed)
T1 construct: extracellular domain;domain: Fc; bought; also called B7-H2 ectodomain
T1 sequence (O75144 other isoform, or with tags, fused parts or gaps limits assumed): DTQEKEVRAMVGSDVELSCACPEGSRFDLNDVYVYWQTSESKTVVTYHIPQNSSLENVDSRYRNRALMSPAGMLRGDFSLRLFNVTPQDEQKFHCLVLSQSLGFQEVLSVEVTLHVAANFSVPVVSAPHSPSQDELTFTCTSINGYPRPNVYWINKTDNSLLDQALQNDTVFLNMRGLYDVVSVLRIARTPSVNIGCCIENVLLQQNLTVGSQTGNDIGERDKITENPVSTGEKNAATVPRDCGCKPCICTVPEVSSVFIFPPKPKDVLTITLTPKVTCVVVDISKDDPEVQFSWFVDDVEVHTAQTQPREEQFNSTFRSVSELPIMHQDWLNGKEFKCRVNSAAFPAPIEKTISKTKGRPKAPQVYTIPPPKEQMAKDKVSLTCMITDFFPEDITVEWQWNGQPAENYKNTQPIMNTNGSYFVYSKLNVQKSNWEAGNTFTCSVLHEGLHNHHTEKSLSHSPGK
Experiment: competition ELISA, coated B7-H2; blocked ligand ICOS-biotin
# IC50 (read off the curve) listing for each entry below
observedProperty: IC50 (read off the curve)

- 95H8 (VHH, Nanobody against B7-H2 (ICOSL)) VHH: EVQLVESGGGLVQTGGSLRLSCAASSSTSTSSIDVMGWYRQSPGKQRELVASISSFGSTYYADSVKGRFIISRDNAKNTVNLQMNNLKLEDTAVHFCNLRRLSPPPLLDYWGQGTQVTVSS: ~0.01 µM
- 95B11 (VHH, Nanobody against B7-H2 (ICOSL)) VHH: EVQLVESGGGLVQPGGSLRLSCAASRSISSFNLLGWYRQAPGKQRELVAHLLSGGSTVYPDSVKGRFTVSRDNTKNTVYLQMNSLKPEDTAVYYCNAIAPALGSSWGQGTQVTVSS: ~0.01 µM
- 95G5 (VHH, Nanobody against B7-H2 (ICOSL)) VHH: EVQLVESGGGLVQAGGSLRLSCASSGSTFSIDVMGWYRQAPGKVRERVAIIGTGGFPVYADSVKGRFTISRDNAKNTVYLQMNSLKPEDTAVYYCNAARLVALGSWGQGTQVTVSS: ~0.01 µM

// data source = patent US20240182575A1
